Data provenance is the supplement of paper PMC4466140.

biological target: AgHse1; assay: SPOT peptide array binding signal intensity (averaged, normalized) (arbitrary units (background-subtracted, floor 0; scale differs between SH3 domains)); higher = stronger binding of the SH3 domain to the peptide
For each entry below, report its SPOT peptide array binding signal intensity value.

Give the value of SPOT peptide array binding signal intensity reported for the following: "KTKQQKPAIPQKKSF"
≤ 0

// fetch SPOT peptide array binding signal intensity given entry "KTITLEVESSDTIDN"
≤ 0

Return SPOT peptide array binding signal intensity for the following binder: "DGNEEKPLLPTRPNK"
≤ 0
